Tested on: HCT-116 colon
Test: NCI-60 one-dose screen, 48 h (100 = growth as untreated, 0 = no growth, -100 = all killed)
Conditions used: 10 µM unless noted
About 83,000 compounds went through this panel and 20% of them were active in at least one assay; those are over-represented in the sample as a whole.
Flag rule - growth less than 10% flags criterion met; the remaining entries get criterion not met.

[[record]]
molecule = "CCOC(=O)c1ccc(NC(=S)NC(=O)c2cccc(NC(=O)c3ccc(C)cc3)c2)cc1"
class_name = "criterion not met"

[[record]]
molecule = "C#CCCCNCCNc1ccnc2cc(Cl)ccc12"
class_name = "criterion not met"

[[record]]
molecule = "CCCCNc1ccc2c3c(cccc13)C(=O)N(NCC(O)COc1ccc3c(C)cc(=O)oc3c1)C2=O (centres undefined)"
class_name = "criterion not met"

[[record]]
molecule = "O=C1NC(=NC23CC4CC(CC(C4)C2)C3)N/C1=C\\c1ccc2ncccc2c1"
class_name = "criterion met"

[[record]]
molecule = "C[C@H]1[C@@H](CC(=O)N[C@@H](Cc2coc3ccccc23)B(O)O)O[C@@H]2OC3(C)CC[C@H]4[C@H](C)CC[C@@H]1[C@@]24O3"
class_name = "criterion met"

[[record]]
molecule = "Cc1ccc(C(=O)Nc2ccc(-n3ccnc3)c(C(F)(F)F)c2)cc1C#Cc1cnc2cccnn12"
class_name = "criterion met"

[[record]]
molecule = "COc1ccc(-c2nc3ccccc3n2CC(=O)N=Nc2c(O)[nH]c3ccc(OC)cc23)cc1"
class_name = "criterion met"

[[record]]
molecule = "CN(C)c1nc(NCCNS(=O)(=O)c2ccc(C(=O)/C=C/c3ccccc3)cc2)nc(N2CCOCC2)n1"
class_name = "criterion met"

[[record]]
molecule = "c1n[nH]cc1-c1nc2ccc3[nH]ncc3c2c2c1CC1(CCOCC1)CC2"
class_name = "criterion not met"


----------
System: A498 renal
Test: NCI-60 one-dose screen, 48 h
Conditions used: 10 µM unless noted
About 83,000 compounds went through this panel and 20% of them were active in at least one assay; those are over-represented in the sample as a whole. Active and inactive are the calls of the source. Rule for the calls: active = growth percent below 10; inactive = the rest.
Classes used: active, inactive

[[record]]
line_notation = "COc1c(B(O)O)cc(F)cc1-c1nc2c(F)cc3[nH]ncc3c2c2c1CCCC2"
class_name = "active"

[[record]]
line_notation = "COc1ccc(C(=O)C[n+]2cccc3c4ccccc4ccc32)cc1"
class_name = "inactive"

[[record]]
line_notation = "COc1ccc(N=Nc2c(N)nn3c(-c4ccc(OC)c(OC)c4)ccnc23)cc1"
class_name = "inactive"

[[record]]
line_notation = "O=C(Nc1ccc(S(=O)(=O)N2CCCCC2)cc1)C(Cl)Cl"
class_name = "inactive"

[[record]]
line_notation = "COc1cccc2nc(Nc3cccc(NC(=O)c4ccc(CN5CCN(C)CC5)c(C(F)(F)F)c4)c3)ccc12"
class_name = "active"


----------
// reported growth for each item listed
Test system: M14 melanoma
Test: NCI-60 one-dose screen, 48 h (100 = growth as untreated, 0 = no growth, -100 = all killed)
Conditions used: 10 µM unless noted
Description: Growth inhibition of the M14 human tumor cell line is measured as a screen for anti-cancer activity. Cells are grown in 96 well plates and exposed to the test compound for 48 hours. Compounds are tested at a single concentration, which is 10^-5 M for most compounds. The reported endpoint is percent growth (GI% or GIPRCNT), where numbers from 0 - 100% represent growth inhibition, and numbers from -100% - 0 represent cell death. For example, a value of 40 represents 60% growth inhibition. […]
About 83,000 compounds went through this panel and 20% of them were active in at least one assay; those are over-represented in the sample as a whole. Activity calls are given as the source filed them. The calls were made as follows: active = growth percent below 10; inactive = the rest.
Measurement label: growth

[[record]]
compound = "N#Cc1cc(-c2ccnc(Nc3ccc(N4CCN(C5COC5)CC4)cc3)n2)ccc1N1CCCC1"
target = "M14 melanoma"
reading = "71.9% (inactive)"

[[record]]
compound = "O=C1CC(c2ccc(I)cc2)OC2C=Cc3ccccc3C12 (stereo not given)"
target = "M14 melanoma"
reading = "108% (inactive)"

[[record]]
compound = "O=C(c1ccc(Cl)cc1)C1[C@H](c2ccccc2Cl)[C@@H](c2ccccc2)NC12C(=O)Nc1ccc(Br)cc12 (stereo not given in full)"
target = "M14 melanoma"
reading = "-88.5% (active)"

[[record]]
compound = "c1ccc(CSc2nnc(-c3ccc4nc(-c5ccccc5)[nH]c4c3)o2)cc1"
target = "M14 melanoma"
reading = "41.5% (inactive)"

[[record]]
compound = "Cn1cc(-c2cc(N)n3nc(-c4c[nH]c5ccccc45)cc3n2)c2cc(Cl)ccc21"
target = "M14 melanoma"
reading = "-75.5% (active)"

